Recorded melting point for the following compounds
Counter-ions that a name gives are not always drawn.

Worked set:
CCCc1nn(C)c2c(=O)n(CCOc3ccc(C[C@H](OCC)C(=O)[O-])cc3)c(CC)nc12.[Li+] (stereo in doubt)    215 to 218 °C
CCO[C@@H](Cc1ccc(OCCn2c(CC)nc3ccccc3c2=O)cc1)C(=O)O (as salt: salt) [Example 11]    216 to 220 °C

QUERY: What measured melting point goes with CCCc1nn(C)c2c(=O)n(CCOc3ccc(C[C@H](OCC)C(=O)[O-])cc3)c(CC)nc12.[Na+] ?
RESULT: 112 to 114 °C

QUERY: Item under review: CCCc1nn(C)c2c(=O)n(CCOc3ccc(C[C@H](OCC)C(=O)O)cc3)c(CC)nc12 (as salt: salt) [Example 41] . Reported melting point?
RESULT: 138 to 140 °C

QUERY: Look at this compound and give its reported melting point. CCCc1nn(C)c2c(=O)n(CCOc3ccc(C[C@H](OCC)C(=O)O)cc3)c(CC)nc12 (as salt: salt) [Example 36]
RESULT: 235 °C

QUERY: Sample CCCc1nn(C)c2c(=O)n(CCOc3ccc(C[C@H](OCC)C(=O)O)cc3)c(C)nc12 (as salt: salt) — what was its melting point?
RESULT: 110 to 112 °C

From: patent US20020169175A1
